# Normalized fIL-5 ELISA value, 65 ng/ml Fab listing for each entry below
Biological target: T1, feline IL-5 (Kingfisher Biotech; RP1152F) (feline, UniProt O77515 20-134)
T1 construct: Bought recombinant protein; also called fIL-5; fIL5
T1 sequence (looked up): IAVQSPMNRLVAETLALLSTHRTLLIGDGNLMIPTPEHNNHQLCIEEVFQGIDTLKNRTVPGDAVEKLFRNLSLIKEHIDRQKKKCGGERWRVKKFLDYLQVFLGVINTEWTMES
Assay: ELISA on plate-coated feline IL-5, Fab at 65 ng/ml dimerized with goat anti-feline IgG F(ab')2, anti-goat-HRP detection
// print number alone

Observe how each entry below is paired with its result.
>  <BINDER>
2L2-G12 Fab (MtxB LCDR2 variant) (Fab, V domains shown, Fab from the MtxB LCDR2 library) VH: DVQLVESGGDLVKPGGSLRLTCVGSGFTFSNYAMSWVRQAPGEGLQWVATIGSGGHYTYHPDSVKGRFTISRDNAKNTLYLQMNSLQTEDTASYYCTRETDGYDGMDYWGQGTLVTVSS VL: DIVMTQTPLSLSVTPGEPASISCRASQSISDYLYWYLQKPGQSPRRVFFTPSDSASGVPDRFSGSGSGTDFTLRISRVEADDVGVYYCQNGHSFPYTFGPGTKLEIK

>  <ENDPOINT_RESULT>
0.251

$$$$
>  <BINDER>
1L2-E7 Fab (MtxB LCDR2 variant) (Fab, V domains shown, Fab from the MtxB LCDR2 library; the entry named is the parent, the changed CDR is told under detail) VH: DVQLVESGGDLVKPGGSLRLTCVGSGFTFSNYAMSWVRQAPGEGLQWVATIGSGGHYTYHPDSVKGRFTISRDNAKNTLYLQMNSLQTEDTASYYCTRETDGYDGMDYWGQGTLVTVSS VL: DIVMTQTPLSLSVTPGEPASISCRASQSISDYLYWYLQKPGQSPRRIFFASSLYDSGVPDRFSGSGSGTDFTLRISRVEADDVGVYYCQNGHSFPYTFGPGTKLEIK

>  <ENDPOINT_RESULT>
0.366

$$$$
>  <BINDER>
1L2-D12 Fab (MtxB LCDR2 variant) (Fab, V domains shown, Fab from the MtxB LCDR2 library; the entry named is the parent, the changed CDR is told under detail) VH: DVQLVESGGDLVKPGGSLRLTCVGSGFTFSNYAMSWVRQAPGEGLQWVATIGSGGHYTYHPDSVKGRFTISRDNAKNTLYLQMNSLQTEDTASYYCTRETDGYDGMDYWGQGTLVTVSS VL: DIVMTQTPLSLSVTPGEPASISCRASQSISDYLYWYLQKPGQSPRRIFFGYSGTKSGVPDRFSGSGSGTDFTLRISRVEADDVGVYYCQNGHSFPYTFGPGTKLEIK

>  <ENDPOINT_RESULT>
0.303

$$$$

Normalized fIL-5 ELISA value, 65 ng/ml Fab for 1H3-C6 Fab (MtxB HCDR3 variant) (Fab, V domains shown, Fab from the MtxB HCDR3 library; the entry named is the parent, the changed CDR is told under detail) VH: DVQLVESGGDLVKPGGSLRLTCVGSGFTFSNYAMSWVRQAPGEGLQWVATIGSGGHYTYHPDSVKGRFTISRDNAKNTLYLQMNSLQTEDTASYYCTRETDGYGPMDVWGQGTLVTVSS VL: DIVMTQTPLSLSVTPGEPASISCRASQSISDYLYWYLQKPGQSPRRLIYYASQSISGVPDRFSGSGSGTDFTLRISRVEADDVGVYYCQNGHSFPYTFGPGTKLEIK ?
0.967

Also 1L2a-H2 Fab (MtxB LCDR2 variant) (Fab, V domains shown, Fab from the MtxB LCDR2 library; the entry named is the parent, the changed CDR is told under detail) VH: DVQLVESGGDLVKPGGSLRLTCVGSGFTFSNYAMSWVRQAPGEGLQWVATIGSGGHYTYHPDSVKGRFTISRDNAKNTLYLQMNSLQTEDTASYYCTRETDGYDGMDYWGQGTLVTVSS VL: DIVMTQTPLSLSVTPGEPASISCRASQSISDYLYWYLQKPGQSPRRVFYTDSAEVSGVPDRFSGSGSGTDFTLRISRVEADDVGVYYCQNGHSFPYTFGPGTKLEIK , if possible.
0.559
